Hello, the source for this data is PubChem BioAssay AID328, in case you need it.

Tested on: BDF1 mice, P388 leukemia ip, median survival T/C
Test: NCI In Vivo Anticancer Drug Screen. Data for tumor model P388 Leukemia (intraperitoneal) in B6D2F1 (BDF1) mice
Conditions: endpoint: median survival time; dose: 400.0 mg/kg/injection; schedule: Q01DX001 (ip); vehicle: Klucel (hydroxypropylcellulose) (HPC); higher = longer survival
Procedure: The antitumor activity of compounds was measured in mice bearing transplantable tumors. Survival or tumor size were measured and the results are expressed as the measurement made in the treated group (T) divided by the measurement made in the vehicle treated control group (C). The tumor model used in this assay is P388 Leukemia (intraperitoneal) in B6D2F1 (BDF1) mice
Inconclusive results and toxic doses are left out.
Measurement Name: T/C

Field: example entries. Status: answers known.
O[O][Ge]([c]1ccccc1)([c]1ccccc1)[c]1ccccc1 = 100 % of control
CCOC(=O)C1OC12CCCCC2 (stereo not drawn) = 113 % of control
O=C(c1ccccc1)C1CC1c1ccccc1 (stereo not drawn) = 100 % of control
Nc1nc(N)c(-c2ccccc2)c(C(=O)O)n1 = 113 % of control
CCN1C(=O)c2ccccc2C1=O = 104 % of control
[O-]c1on[n+](C2CCCCC2)c1-c1ccccc1 = 100 % of control
CC(=O)OC12C3CCCC1CCCC2CCC3 (stereo not drawn) = 100 % of control

Inquiry: Report T/C for COC(OC)c1[nH]c(=S)[nH]c(=O)c1Cc1cccc(Cl)c1 please.
Reply text: 104 % of control
